target: SARS-CoV-2 Wuhan-Hu-1 RBD (SARS-CoV-2, Wuhan-Hu-1 (GenBank …, UniProt P0DTC2)); assay: BLI; conditions: both partners purified

{"columns": ["binder", "binding result"],
 "data": [
  ["JR086 (antibody, V domains shown) VH: QVQLVQSGAEVKKPGASVKVSCKASGYTFTGYYMHWVRQAPGQGLEWMGWINPISGATNYAQKFQGGVTMTRDTSISTAYMELSRLRSDDTAVYYCARVNHIVVVTAIDPIYGMDVWGQGTTVTVSS VL: QSALTQPASVSGSPGQSITISCTGTSSDVGGYNYVSWYQQHPGKAPKLMIYEVSNRPSGVSNRFSGSKSGNTASLTISGLQAEDEADYYCSSYTSSSTLYYVFGTGTKVTVL", "binds"],
  ["JR210 (antibody, V domains shown) VH: EVQLVESGGGLVQPGGSLRLSCAASGFTFSNYWMTWVRQAPGKGLEWVANIKQDGSEKYYVDSVKGRFTISRDNAKNSLYLQMNSLRAEDTAVYYCARDLAVAISWFDPWGQGTLVTVSS VL: NFMLTQPHSVSESPGKTVTMSCTRSSGSIASNYVQWYQQRPGSSPTTVIYEDNQRPSGVPDRFSGSIDSSSNSASLTISGLKTEDEADYYCHSYDSPRVVFGGGTKLTVL", "binds"],
  ["JR211 (antibody, V domains shown) VH: QVQLQESGPGLVKPSGTLSLTCAVSGGSISSSHWWNWVRQPPGKGLEWIGEIYHSGSTNYSPSLKSRVTISVDKSKNQFSLKLSSVTAADTAVYYCAKSMRAGPNDGFDYWGQGTLVTVSS VL: QSALTQPASVSGSPGQSITISCTGTSSDVGGYNYVSWYQQHPGKAPKLMIYDVSNRPSGVSNRFSGSKSGNTASLTISGLQAEDEADYYCSSYTSSSTVVFGGGTKLTVL", "binds"]
]}

Hello, the source for this data is paper PMC9253517, in case you need it.
